# Experimental protocol: compounds boosting diaphorase resazurin reduction – biochemical, uHTS, resorufin fluorescence, counter-screen for diaphorase-coupled primary assays, primary screen (AID 1229)
# Experimental parameters: Diaphorase/resazurin coupled assay, 16 min, at 20 µM, hits give high values, 1 = vehicle wells, 0 = NADH-free wells
Hit rate of the full screen: of about 190,000 compounds, about 10 (0.005%) were called active. The full list was thinned out, with actives kept by preference.
Outcome label depends on activation factor relative to 0.9: at/above gives YES, below gives NO.

>>> discrete_label("CNc1[nH]ncc1[N+](=O)[O-]")
"YES"
>>> discrete_label("O=C(NC(=S)Nc1ccc2oc(=O)ccc2c1)c1ccc(-c2cccc(Cl)c2Cl)o1")
"YES"
>>> discrete_label("CCCOc1ccc(NC(=O)CC2C(=O)N(C)C(=S)N2Cc2ccc3c(c2)OCO3)cc1 (stereo not drawn)")
"NO"
>>> discrete_label("COc1ccc(/C=C/C(=O)c2ccc(NS(=O)(=O)c3ccc(C)cc3)cc2)cc1O")
"NO"
>>> discrete_label("Cc1ccc(NC(=O)OCCNC(=O)c2ccncc2)cc1")
"YES"
>>> discrete_label("Cc1ccc(OCCOCCOc2ccc(Br)cc2/C=N\\NC(=O)c2ccncc2)cc1")
"NO"
>>> discrete_label("N#Cc1c(NC(=O)C2CCCO2)sc2c1CCCCC2 (stereo not drawn)")
"YES"
>>> discrete_label("COc1ccc(N2CCN(C(=O)/C(C#N)=C/c3ccccc3)CC2)cc1")
"YES"

Problem: Record CCSc1nc(C)c(CCOc2cccc(C)c2)c(=O)[nH]1 ; criterion: activation factor no lower than 0.9. Met?
Solution: YES

Problem: // query: CCOc1ccc(N2C(=O)CN(c3cccc4ccccc34)C2=S)cc1
Solution: YES

Problem: // query: CN(C(=O)CSc1nnc(-c2n[nH]c3ccccc23)o1)c1ccccc1
Solution: NO

Problem: // query: Cc1cc(C)cc(OCC(=O)NCc2cc(C)nc3ccccc23)c1
Solution: YES

Problem: // query: O=C(COC(=O)c1ccc(Cl)nc1)NCc1ccc2c(c1)OCO2
Solution: YES

###

# Experimental protocol: compounds boosting diaphorase resazurin reduction – biochemical, uHTS, resorufin fluorescence, counter-screen for diaphorase-coupled primary assays, primary screen (AID 1229)
# Experimental parameters: Diaphorase/resazurin coupled assay, 16 min, at 20 µM, hits give high values, 1 = vehicle wells, 0 = NADH-free wells
Out of some 190,000 compounds screened, about 10 (0.005%) were called active. Only a selection was taken, and actives are over-represented in it overall.
Assign activation factor to each entry below.
One number for each entry.

>>> measured_result("O=C(O)c1cccc(NC(=O)c2cc(-c3cccc(Cl)c3)nc3ccccc23)c1")
0.8
>>> measured_result("O=C(CSc1ccc(-c2ccccc2)nn1)NCC1CCCO1 (configuration not stated)")
1.1
>>> measured_result("O=C1CC(=O)Nc2cc(S(=O)(=O)N3CCN(c4cccc(C(F)(F)F)c4)CC3)ccc2N1")
1
>>> measured_result("CCCCOc1ccc(C(=O)N/C(=C/C=C/c2ccccc2)C(=O)N2CCOCC2)cc1")
0.8
>>> measured_result("CCC1S/C(=N/N=C/c2ccco2)NC1=O (configuration not stated)")
0.9
>>> measured_result("O=c1cc(CO)oc(C(Nc2cccc(C(F)(F)F)c2)c2ccccn2)c1O (configuration not stated)")
0.7

Give activation factor for all molecules that follow.
1. CCOC(=O)C(C)Sc1nnc(CSc2nc3nc(C)cc(C)n3n2)o1 (configuration not stated)
2. Cn1cnnc1Sc1ccc(CN2CCN(C3CCCC3)C(CCO)C2)o1 (configuration not stated)
3. CCCCn1nc(C(=O)Nc2ccc(S(=O)(=O)Nc3ncccn3)cc2)c2ccccc2c1=O
4. O=C(c1ccc2c(c1)N(Cc1ccc(F)cc1)C(=O)c1ccccc1S2(=O)=O)N1CCN(c2ccccn2)CC1
5. CNC(=O)c1ccc(NC(=O)c2cccc(C(F)(F)F)c2)cc1
6. COc1ccc(C)cc1NC(=S)Nc1ccccc1SC
7. O=C(NC1CCCC1)C(c1ccc(N2CCOCC2)cc1)N(C(=O)c1ccco1)c1ccccc1F (configuration not stated)

Solution:
1. 1
2. 1
3. 0.9
4. 0.8
5. 0.9
6. 1
7. 0.9

Give activation factor for all molecules that follow.
1. CCOC(=O)CSc1nc(C)cc2c1C(=O)OC2
2. COc1ccc(CN2CCN(Cc3cn(C)nc3-c3ccccc3)CC2CCO)c(C)c1C (configuration not stated)
3. Cc1cc(C)n(-c2nnc(N3CCN(c4ccccc4)CC3)nn2)n1
4. Cc1cc(Cl)ccc1C(=O)C1CCCN(C(=O)CCN2CCCO2)C1 (configuration not stated)

Solution:
[1, 1, 0.9, 1]

Give activation factor for all molecules that follow.
1. COc1cccc(-n2c(=S)[nH]c3c(oc4ccccc43)c2=O)c1
2. CC(C)Oc1c(Br)cc(Br)cc1/C=N/NC(N)=S
3. COc1cccc(CC2(CO)CCN(Cc3cnc(-c4cccc(C)c4)nc3)CC2)c1
4. Cc1c(C2=CCN(S(=O)(=O)c3ccc(Cl)cc3)CC2)c2ccccc2n1C
5. Cc1ccc(NC2=C(Cl)C(=O)OC2OC(=O)c2ccccc2C)cc1 (configuration not stated)

Solution:
1. 0.3
2. 1
3. 0.7
4. 0.9
5. 0.9
